assay: Cytotoxicity, viability by Trypan blue exclusion; conditions: human, RS4;11 cells, Cytotoxicity (IC50, ng/ml), four days
PARAMETER: IC50 at 4 days

What value of IC50 at 4 days has been reported for the following compound? "COC(=O)[C@@]12OC[C@]34[C@H]([C@@H](O)[C@@H]1O)[C@@]1(C)CC(=O)C(O)=C(C)[C@@H]1C[C@H]3OC(=O)[C@H](OC(=O)C=C(C)C)[C@@H]24" < 0.025 µg/mL

---

assay: Withdrawal assays, growth and differentiation of HL-60 cells; format: cell-based, human; conditions: human, HL-60 cells, 2-day protocol versus 4-day protocol, read-out: increase in selectivity (differentiation vs cytotoxicity)
PARAMETER: selectivity ratio
No unit in the answer, only the number.

What value of selectivity ratio has been reported for the following compound? "COC(=O)[C@@]12OC[C@]34[C@H]([C@@H](O)[C@@H]1O)[C@@]1(C)CC(=O)C(O)=C(C)[C@@H]1C[C@H]3OC(=O)[C@H](OC(=O)C=C(C)C)[C@@H]24" 10

---

assay: Cytotoxicity, viability by Trypan blue exclusion; settings: human, K562 cells
PARAMETER: viability at 4 days, 100 ng/ml

What value of viability at 4 days, 100 ng/ml has been reported for the following compound? COC(=O)[C@@]12OC[C@]34[C@H]([C@@H](O)[C@@H]1O)[C@@]1(C)CC(=O)C(O)=C(C)[C@@H]1C[C@H]3OC(=O)[C@H](OC(=O)C=C(C)C)[C@@H]24 [compound 1, brusatol] ~90%

---

Assay: Withdrawal assays, growth and differentiation of HL-60 cells
Type: cell-based, human
Settings: human, HL-60 cells, 2 day-protocol, read-out: cytotoxic IC50
Description: The irreversibility of brusatol effects on growth and differentiation of HL-60 cells was tested using withdrawal assays during a 4-day experiment. The assay lasted for 4 days (96 h) and then, cells were analyzed for viability and differentiation markers. […] Results are shown as the mean of duplicate samples (±standard deviation).
PARAMETER: IC50 at 2 days (µg/mL)
Numeric answer only, unit µg/mL assumed.

What value of IC50 at 2 days has been reported for the following molecule? "COC(=O)[C@@]12OC[C@]34[C@H]([C@@H](O)[C@@H]1O)[C@@]1(C)CC(=O)C(O)=C(C)[C@@H]1C[C@H]3OC(=O)[C@H](OC(=O)C=C(C)C)[C@@H]24" 0.25

---

test: Cytotoxicity, viability by Trypan blue exclusion; details: human, peripheral blood lymphocytes stimulated with concanavalin A
PARAMETER: viability at 3 days, 100 ng/ml

What value of viability at 3 days, 100 ng/ml has been reported for the following compound? "COC(=O)[C@@]12OC[C@]34[C@H]([C@@H](O)[C@@H]1O)[C@@]1(C)CC(=O)C(O)=C(C)[C@@H]1C[C@H]3OC(=O)[C@H](OC(=O)C=C(C)C)[C@@H]24" ~90%

---

experiment: in vitro; settings: human
PARAMETER: IC50 at 4 days

What value of IC50 at 4 days has been reported for the following compound? COC(=O)[C@@]12OC[C@]34[C@H]([C@@H](O)[C@@H]1O)[C@@]1(C)CC(=O)C(O)=C(C)[C@@H]1C[C@H]3OC(=O)[C@H](OC(=O)/C=C(\C)C(C)C)[C@@H]24 [compound 2, bruceantin] > 0.05 µg/mL

---

experiment: Cytotoxicity, viability by Trypan blue exclusion; conditions: human, Kasumi-1 cells, Cytotoxicity (IC50, ng/ml), four days
PARAMETER: IC50 at 4 days

What value of IC50 at 4 days has been reported for the following compound? COC(=O)[C@@]12OC[C@]34[C@H]([C@@H](O)[C@@H]1O)[C@@]1(C)CC(=O)C(O)=C(C)[C@@H]1C[C@H]3OC(=O)[C@H](OC(=O)C=C(C)C)[C@@H]24 [compound 1, brusatol] 0.05 to 0.1 µg/mL

---

test system: HL-60 (human promyelocytic) cells; test: HL-60 cell proliferation assay of quassinoids, [3H]thymidine incorporation; format: cell-based; details: Homo sapiens, 4-day incubation, [3H]thymidine incorporation, read-out: inhibition of proliferation (IC50)
PARAMETER: pIC50
Scale explanation: pIC50 corresponds to minus log10 of a concentration expressed in moles per litre.

COC(=O)[C@@]12OC[C@]34[C@H]([C@@H](O)[C@@H]1O)[C@@]1(C)CC(=O)C(O)=C(C)[C@@H]1C[C@H]3OC(=O)[C@H](OC(=O)/C=C(\C)C(C)C)[C@@H]24 [compound 2, bruceantin]
7.40

What value of pIC50 has been reported for the following molecule? COC(=O)[C@@]12OC[C@]34[C@H]([C@@H](O)[C@@H]1O)[C@@]1(C)CC(=O)C(O)=C(C)[C@@H]1C[C@H]3OC(=O)[C@H](OC(=O)C=C(C)C)[C@@H]24 [compound 1, brusatol] 7.15

What value of pIC50 has been reported for the following molecule? CC[C@@](C)(OC(C)=O)C(=O)O[C@H]1C(=O)O[C@@H]2C[C@H]3C(C)=CC(=O)[C@@H](O)[C@]3(C)[C@H]3[C@@H](O)[C@H](O)[C@@]4(C)OC[C@]32[C@@H]14 [compound 3, quassimarin] 7.22

---

test: in vitro; conditions: human
PARAMETER: IC50 at 3 days

What value of IC50 at 3 days has been reported for the following compound? COC(=O)[C@@]12OC[C@]34[C@H]([C@@H](O)[C@@H]1O)[C@@]1(C)CC(=O)C(O)=C(C)[C@@H]1C[C@H]3OC(=O)[C@H](OC(=O)/C=C(\C)C(C)C)[C@@H]24 [compound 2, bruceantin] > 0.05 mg/L

---

assay: HL-60 cytotoxicity of quassinoids, trypan blue exclusion; format: cell-based, human; settings: human
PARAMETER: IC50 at 4 days

What value of IC50 at 4 days has been reported for the following compound? COC(=O)[C@@]12OC[C@]34[C@H]([C@@H](O)[C@@H]1O)[C@@]1(C)CC(=O)C(O)=C(C)[C@@H]1C[C@H]3OC(=O)[C@H](OC(=O)/C=C(\C)C(C)C)[C@@H]24 [compound 2, bruceantin] 40 nM

---

Assay: Withdrawal assays, growth and differentiation of HL-60 cells
Format: cell-based, human
Details: human, HL-60 cells, 12.5 ng/ml, 72 h exposure
Procedure: The irreversibility of brusatol effects on growth and differentiation of HL-60 cells was tested using withdrawal assays during a 4-day experiment. The assay lasted for 4 days (96 h) and then, cells were analyzed for viability and differentiation markers. […] Results are shown as the mean of duplicate samples (±standard deviation).
PARAMETER: viability at 72 h, 12.5 ng/ml (%)
Numeric answer only, unit % assumed.

What value of viability at 72 h, 12.5 ng/ml has been reported for the following molecule? "COC(=O)[C@@]12OC[C@]34[C@H]([C@@H](O)[C@@H]1O)[C@@]1(C)CC(=O)C(O)=C(C)[C@@H]1C[C@H]3OC(=O)[C@H](OC(=O)C=C(C)C)[C@@H]24" 56

---

test: Cytotoxicity, viability by Trypan blue exclusion; settings: human, Reh cells, Cytotoxicity (IC50, ng/ml), four days
PARAMETER: IC50 at 4 days

What value of IC50 at 4 days has been reported for the following compound? "COC(=O)[C@@]12OC[C@]34[C@H]([C@@H](O)[C@@H]1O)[C@@]1(C)CC(=O)C(O)=C(C)[C@@H]1C[C@H]3OC(=O)[C@H](OC(=O)C=C(C)C)[C@@H]24" 0.05 to 0.1 µg/mL

---

tested on: HL-60 (human promyelocytic) cells; test: HL-60 cytotoxicity of quassinoids, trypan blue exclusion; format: cell-based; details: HL-60; 4-day incubation; trypan blue exclusion
PARAMETER: pIC50
Scale explanation: pIC50 corresponds to minus log10 of a concentration expressed in moles per litre.

// below: answered compounds
CC1=CC(=O)[C@@H](O)[C@]2(C)[C@H]3[C@]4(O)OC[C@]35[C@H]([C@@H](C)[C@H]4O)[C@@H](O)C(=O)O[C@@H]5C[C@@H]12 [compound 24, glaucarubolone]
5.89
CC[C@](C)(O)C(=O)O[C@H]1C(=O)O[C@@H]2C[C@H]3C(C)=CC(=O)[C@@H](O)[C@]3(C)[C@H]3[C@@]4(O)OC[C@]32[C@@H]1[C@@H](C)[C@H]4O [compound 25, glaucarubinone]
6.00
CC[C@@](O)(CC(=O)O[C@@H]1C(=O)O[C@@H]2C[C@@H]3C(C)=CC(=O)[C@H](O)[C@]3(C)[C@H]3[C@]4(O)OC[C@]32[C@@H]1[C@@H](C)[C@H]4O)C(C)C [compound 10, Peninsularinone]
7.89

Provide the documented pIC50 with HL-60 (human promyelocytic) cells as the system for CC1=CC(=O)[C@@H](O)[C@]2(C)[C@H]3[C@@]4(O)OC[C@@]35[C@@H](C[C@@H]12)OC(=O)C[C@H]5[C@@H](C)[C@H]4O [compound 26, chaparrinone] 5.30
